Test system: Mycobacterium tuberculosis Erdman (autoluminescent)
experiment-description: GRinf, maximum normalised growth rate inhibition (three-drug combination) (unitless (-1 to 1)); higher = less effect (negative = killing)
test-settings: in vitro model: valerate; time point: constant (~7 days, model-specific)
property-name: GRinf
Please reply with the number alone, leaving off any unit.

// GRinf value for COc1nc2ccc(Br)cc2cc1[C@@H](c1ccccc1)[C@@](O)(CCN(C)C)c1cccc2ccccc12 [bedaquiline] + COc1c(N2C[C@@H]3CCCN[C@@H]3C2)c(F)cc2c(=O)c(C(=O)O)cn(C3CC3)c12 [moxifloxacin] + CO[C@H]1/C=C/O[C@@]2(C)Oc3c(C)c(O)c4c(O)c(c(/C=N/N5CCN(C6CCCC6)CC5)c(O)c4c3C2=O)NC(=O)/C(C)=C\C=C\[C@H](C)[C@H](O)[C@@H](C)[C@@H](O)[C@@H](C)[C@H](OC(C)=O)[C@@H]1C [rifapentine] : -0.117

Looking up COc1nc2ccc(Br)cc2cc1[C@@H](c1ccccc1)[C@@](O)(CCN(C)C)c1cccc2ccccc12 [bedaquiline] + NNC(=O)c1ccncc1 [isoniazid] + O=[N+]([O-])c1cn2c(n1)OC[C@@H](OCc1ccc(OC(F)(F)F)cc1)C2 [pretomanid] , I see its GRinf listed as -0.333

compound CC(C)/N=c1\cc2n(-c3ccc(Cl)cc3)c3ccccc3nc-2cc1Nc1ccc(Cl)cc1 [clofazimine] + CC(=O)NC[C@H]1CN(c2ccc(N3CCOCC3)c(F)c2)C(=O)O1 [linezolid] + CO[C@H]1/C=C/O[C@@]2(C)Oc3c(C)c(O)c4c(O)c(c(/C=N/N5CCN(C)CC5)c(O)c4c3C2=O)NC(=O)/C(C)=C\C=C\[C@H](C)[C@H](O)[C@@H](C)[C@@H](O)[C@@H](C)[C@H](OC(C)=O)[C@@H]1C [rifampicin] , GRinf observed: -0.0893

---

System: Mycobacterium tuberculosis Erdman (autoluminescent)
experiment-description: AUC25, normalised area under dose response up to IC25 (three-drug combination) (fraction (0-1)); higher = more potent at low dose
test-settings: in vitro model: valerate; time point: constant (~7 days, model-specific)
property-name: AUC25

Lab book: AUC25 of CC[C@@H](CO)NCCN[C@@H](CC)CO [ethambutol] + CC(=O)NC[C@H]1CN(c2ccc(N3CCOCC3)c(F)c2)C(=O)O1 [linezolid] + COc1c(N2C[C@@H]3CCCN[C@@H]3C2)c(F)cc2c(=O)c(C(=O)O)cn(C3CC3)c12 [moxifloxacin] noted as 0.0828

Value of measured AUC25 for the entry CC(=O)NC[C@H]1CN(c2ccc(N3CCOCC3)c(F)c2)C(=O)O1 [linezolid] + NC(=O)c1cnccn1 [pyrazinamide] + CO[C@H]1/C=C/O[C@@]2(C)Oc3c(C)c(O)c4c(O)c(c(/C=N/N5CCN(C6CCCC6)CC5)c(O)c4c3C2=O)NC(=O)/C(C)=C\C=C\[C@H](C)[C@H](O)[C@@H](C)[C@@H](O)[C@@H](C)[C@H](OC(C)=O)[C@@H]1C [rifapentine] : 0.0698

Field AUC25 (entry CC(C)/N=c1\cc2n(-c3ccc(Cl)cc3)c3ccccc3nc-2cc1Nc1ccc(Cl)cc1 [clofazimine] + NNC(=O)c1ccncc1 [isoniazid] + O=[N+]([O-])c1cn2c(n1)OC[C@@H](OCc1ccc(OC(F)(F)F)cc1)C2 [pretomanid] ) reads 0.15

---

Test system: Mycobacterium tuberculosis Erdman (autoluminescent)
experiment-description: AUC25, normalised area under dose response up to IC25 (three-drug combination) (fraction (0-1)); higher = more potent at low dose
test-settings: in vitro model: cholesterol 0.05 mM; time point: terminal (~4-5 doublings, model-specific)
property-name: AUC25
Enter the number alone.

Value (AUC25, Mycobacterium tuberculosis Erdman (autoluminescent)) for record NNC(=O)c1ccncc1 [isoniazid] + O=[N+]([O-])c1cn2c(n1)OC[C@@H](OCc1ccc(OC(F)(F)F)cc1)C2 [pretomanid] + NC(=O)c1cnccn1 [pyrazinamide] = 0.0922

The value of AUC25 recorded for COc1nc2ccc(Br)cc2cc1[C@@H](c1ccccc1)[C@@](O)(CCN(C)C)c1cccc2ccccc12 [bedaquiline] + COc1c(N2C[C@@H]3CCCN[C@@H]3C2)c(F)cc2c(=O)c(C(=O)O)cn(C3CC3)c12 [moxifloxacin] + NC(=O)c1cnccn1 [pyrazinamide] when tested on Mycobacterium tuberculosis Erdman (autoluminescent) reads 0.115

---

For each entry below, report its GRinf value.
System: Mycobacterium tuberculosis Erdman (autoluminescent)
experiment-description: GRinf, maximum normalised growth rate inhibition (three-drug combination) (unitless (-1 to 1)); higher = less effect (negative = killing)
test-settings: in vitro model: valerate; time point: constant (~7 days, model-specific)
Reply briefly: the number, and no unit.

GRinf recorded for this compound, COc1nc2ccc(Br)cc2cc1[C@@H](c1ccccc1)[C@@](O)(CCN(C)C)c1cccc2ccccc12 [bedaquiline] + CC[C@@H](CO)NCCN[C@@H](CC)CO [ethambutol] + CO[C@H]1/C=C/O[C@@]2(C)Oc3c(C)c(O)c4c(O)c(c(/C=N/N5CCN(C6CCCC6)CC5)c(O)c4c3C2=O)NC(=O)/C(C)=C\C=C\[C@H](C)[C@H](O)[C@@H](C)[C@@H](O)[C@@H](C)[C@H](OC(C)=O)[C@@H]1C [rifapentine] , is -0.0669

The reported value for CC[C@@H](CO)NCCN[C@@H](CC)CO [ethambutol] + NNC(=O)c1ccncc1 [isoniazid] + CO[C@H]1/C=C/O[C@@]2(C)Oc3c(C)c(O)c4c(O)c(c(/C=N/N5CCN(C)CC5)c(O)c4c3C2=O)NC(=O)/C(C)=C\C=C\[C@H](C)[C@H](O)[C@@H](C)[C@@H](O)[C@@H](C)[C@H](OC(C)=O)[C@@H]1C [rifampicin] in terms of GRinf is 0.000652

So for NNC(=O)c1ccncc1 [isoniazid] + CC(=O)NC[C@H]1CN(c2ccc(N3CCOCC3)c(F)c2)C(=O)O1 [linezolid] + COc1c(N2C[C@@H]3CCCN[C@@H]3C2)c(F)cc2c(=O)c(C(=O)O)cn(C3CC3)c12 [moxifloxacin] , the logged GRinf turned out to be -0.0253

// CC[C@@H](CO)NCCN[C@@H](CC)CO [ethambutol] + O=[N+]([O-])c1cn2c(n1)OC[C@@H](OCc1ccc(OC(F)(F)F)cc1)C2 [pretomanid] + NC(=O)c1cnccn1 [pyrazinamide] : GRinf value = 0.0142

---

Test system: Mycobacterium tuberculosis Erdman (autoluminescent)
experiment-description: FIC90 (Loewe) at 90% inhibition (log2); higher = more antagonistic
test-settings: in vitro model: acidic pH 5.7; time point: terminal (~4-5 doublings, model-specific)
property-name: FIC90

The compound CC(C)/N=c1\cc2n(-c3ccc(Cl)cc3)c3ccccc3nc-2cc1Nc1ccc(Cl)cc1 [clofazimine] + CO[C@H]1/C=C/O[C@@]2(C)Oc3c(C)c(O)c4c(O)c(c(/C=N/N5CCN(C6CCCC6)CC5)c(O)c4c3C2=O)NC(=O)/C(C)=C\C=C\[C@H](C)[C@H](O)[C@@H](C)[C@@H](O)[C@@H](C)[C@H](OC(C)=O)[C@@H]1C [rifapentine] , when measured on Mycobacterium tuberculosis Erdman (autoluminescent), yielded FIC90 of 0.123

GET /values?item= CC(C)/N=c1\cc2n(-c3ccc(Cl)cc3)c3ccccc3nc-2cc1Nc1ccc(Cl)cc1 [clofazimine] + CC[C@@H](CO)NCCN[C@@H](CC)CO [ethambutol] &system= Mycobacterium tuberculosis Erdman (autoluminescent) returns FIC90: 0.294

Form field FIC90 for item NC(=O)c1cnccn1 [pyrazinamide] + CO[C@H]1/C=C/O[C@@]2(C)Oc3c(C)c(O)c4c(O)c(c(/C=N/N5CCN(C)CC5)c(O)c4c3C2=O)NC(=O)/C(C)=C\C=C\[C@H](C)[C@H](O)[C@@H](C)[C@@H](O)[C@@H](C)[C@H](OC(C)=O)[C@@H]1C [rifampicin] on Mycobacterium tuberculosis Erdman (autoluminescent): -1.3

// returns FIC90 for COc1nc2ccc(Br)cc2cc1[C@@H](c1ccccc1)[C@@](O)(CCN(C)C)c1cccc2ccccc12 [bedaquiline] + NNC(=O)c1ccncc1 [isoniazid] with Mycobacterium tuberculosis Erdman (autoluminescent); value = 0.404

Tested on Mycobacterium tuberculosis Erdman (autoluminescent), the item NNC(=O)c1ccncc1 [isoniazid] + O=[N+]([O-])c1cn2c(n1)OC[C@@H](OCc1ccc(OC(F)(F)F)cc1)C2 [pretomanid] showed FIC90 equal to 0.597

---

System: Mycobacterium tuberculosis Erdman (autoluminescent)
experiment-description: Einf, fitted maximum growth inhibition of three-drug combination (fraction); higher = stronger maximal inhibition
test-settings: in vitro model: valerate; time point: constant (~7 days, model-specific)
Please respond with reported Einf for every item in the list.
Answer with a bare number; do not write a unit.

// recorded Einf for CC[C@@H](CO)NCCN[C@@H](CC)CO [ethambutol] + NNC(=O)c1ccncc1 [isoniazid] + CO[C@H]1/C=C/O[C@@]2(C)Oc3c(C)c(O)c4c(O)c(c(/C=N/N5CCN(C)CC5)c(O)c4c3C2=O)NC(=O)/C(C)=C\C=C\[C@H](C)[C@H](O)[C@@H](C)[C@@H](O)[C@@H](C)[C@H](OC(C)=O)[C@@H]1C [rifampicin] : 0.853

Record summary for CC(C)/N=c1\cc2n(-c3ccc(Cl)cc3)c3ccccc3nc-2cc1Nc1ccc(Cl)cc1 [clofazimine] + NNC(=O)c1ccncc1 [isoniazid] + O=[N+]([O-])c1cn2c(n1)OC[C@@H](OCc1ccc(OC(F)(F)F)cc1)C2 [pretomanid] : reported Einf = 0.918

FYI, the data here is from the supplement of paper PMC8617591.
